Each item that follows carries a reported Kd.
tested.target: T1, PUF4 RNA-binding domain (Saccharomyces cerevisiae, UniProt P25339 537-888)
T1 sequence: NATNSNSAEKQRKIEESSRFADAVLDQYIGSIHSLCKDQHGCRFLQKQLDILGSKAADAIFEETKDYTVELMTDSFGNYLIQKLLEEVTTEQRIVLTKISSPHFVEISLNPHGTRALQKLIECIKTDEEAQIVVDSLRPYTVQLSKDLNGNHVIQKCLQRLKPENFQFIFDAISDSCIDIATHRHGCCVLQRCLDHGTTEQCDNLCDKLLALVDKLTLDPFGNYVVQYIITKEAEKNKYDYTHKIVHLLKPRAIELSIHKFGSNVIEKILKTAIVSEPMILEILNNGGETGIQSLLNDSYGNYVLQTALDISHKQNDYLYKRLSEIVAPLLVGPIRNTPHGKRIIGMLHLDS
measurement.notes: Mg; RNA-MaP; 20 mM Na-HEPES pH 7.4, 30 mM KOAc, 0.75 mM MgCl2, 0.1% Tween-20, 5% glycerol, 0.1 mg/mL BSA, 2 mM DTT; 25 C; 0.0125-409.6 nM protein
applied.conditions: tags: N-His6-TEV cleaved; C-SNAP kept, Cy3B-labelled; label: tethered on chip by stalled RNA polymerase
# number only, unit nM dropped from output

Request: Fill blank: measured Kd of the binder UCUCUUGCUAUAUUAUUACCUCUCUU (ssRNA) [Id_ii_S1_P5E.3_K5.2_C5.2_[C-2G]_[T-1C]_H5.2_A5.1_F5.1_T5.2_[T11C]_[A12C]] is ____.
Response: 340

Request: Another binder: UCUCUUAUACACUAUUAUUUCUCUU (ssRNA) [Id_ii_S1_P4E.4_K4.3_C4.2_[C-2A]_H4.3_A4.1_F4.1_T4.2_[G10T]]
Response: 35.2

Request: Another binder: Ic_S2_P5E.1_K5.1_C5.1_H5.1_A5.1_[A7C]_F5.1_[T9A]_T5.1 (ssRNA) RNA: UUUGAUUAAUAUGAUAUCGUUCUUUCUUGUAUUCUAAUUCUUUCUCGAUAUCAUAUUAAUCUUU
Response: 2.31

Request: Another binder: UCUCUUCUUGUCCUAUAUAUAUCUCUU (ssRNA) [Ie_S1_P3E.2_K3.1_C3.2_H3.1_[+2TCC]_A3.1_F3.1_T3.2]
Response: 62.9

Request: Another binder: Ic_S4_P5E.1_K5.1_C5.1_H5.1_A5.1_[T5C]_[T6G]_[A7T]_F5.1_[T8A]_[T9A]_[A10T]_T5.1 (ssRNA) RNA: UUUGACAACUGAUCGUUCUUUCUUGUACGUAAUUUCUUUCUCGAUCAGUUGUCUUU
Response: 67.6

Shifting focus to the binder that follows.
Request: Fill blank: measured Kd of the binder UCUCUUUGUCCUCAUUAUUAUCUCUU (ssRNA) [Ie_S1_P5E.1_K5.1_C5.1_H5.1_[+3CCTC]_A5.1_F5.1_T5.1] is ____.
Response: 738
